Measured values drawn from patent US20240360228A1 for this set.

tgt: T1, human CCR8 (human, UniProt P51685 1-355)
T1 construct: Native CCR8 on human PBMC (CCR8+ CD3+ or CCR8+ CD4+ lymphocytes); also called chemokine (C-C motif) receptor 8
test_summary: flow blocking, PBMC CCR8+CD4+; competitor PE-433H
reported_endpoint: % Positive cells

AB3 (antibody, V domains shown, Hybridoma monoclonal; also called antibody 3; clone 3) VH: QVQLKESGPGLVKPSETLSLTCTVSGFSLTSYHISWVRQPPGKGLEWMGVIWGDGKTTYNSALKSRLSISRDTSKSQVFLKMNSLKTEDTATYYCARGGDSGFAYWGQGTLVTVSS VL: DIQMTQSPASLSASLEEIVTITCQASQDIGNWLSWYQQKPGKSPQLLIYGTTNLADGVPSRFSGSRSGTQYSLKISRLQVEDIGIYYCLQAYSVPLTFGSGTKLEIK; 1.63%
AB5 (antibody, V domains shown, Hybridoma monoclonal; Same VH/VL entries as AB6; also called antibody 5; clone 5) VH: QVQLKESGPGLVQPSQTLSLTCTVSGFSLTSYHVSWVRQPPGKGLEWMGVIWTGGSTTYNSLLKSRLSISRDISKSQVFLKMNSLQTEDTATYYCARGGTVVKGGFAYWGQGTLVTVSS VL: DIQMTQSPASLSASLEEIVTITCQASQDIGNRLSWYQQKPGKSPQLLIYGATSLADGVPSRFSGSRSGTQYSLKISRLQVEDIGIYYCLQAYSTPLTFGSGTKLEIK; 1.54%
AB15 (antibody, V domains shown, Hybridoma monoclonal; Same VH/VL entries as AB14; also called antibody 15; clone 15) VH: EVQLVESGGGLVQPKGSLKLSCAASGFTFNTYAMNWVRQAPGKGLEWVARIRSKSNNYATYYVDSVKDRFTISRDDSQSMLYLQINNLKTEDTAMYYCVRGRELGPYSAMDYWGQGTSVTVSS VL: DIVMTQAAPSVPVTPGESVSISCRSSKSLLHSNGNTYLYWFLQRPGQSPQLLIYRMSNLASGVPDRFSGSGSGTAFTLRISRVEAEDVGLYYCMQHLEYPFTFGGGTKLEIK; 1.38%
